# System: HCC-2998 colon
# method description: NCI tumour cell line growth inhibition, 48 h
Catalogue of compounds with associated TGI

> print(dat)
                     compound.structure  experimental.endpoint  readout.value
1  CC(=O)Nc1ccc(SC#N)c2c(NC(C)=O)cccc12                    TGI       > 100 µM
2        O=c1ssc(=Nc2ccccc2)n1-c1ccccc1                    TGI       > 100 µM

**Q:** What value of TGI has been recorded for this entry: `O=C(O)c1ccc(C(=O)c2ccccc2)c(C(=O)O)c1`
**A:** > 100 µM

###

# Tested on: DMS 114 small cell lung
# method description: NCI tumour cell line growth inhibition, 48 h
experimental endpoint: TGI

> print(dat)
                                   compound             study.system  readout.value
1  O=C(O)c1cc2c(ncc3c(=O)n(-c4ccccc4)[nH]c32)s1  DMS 114 small cell lung       > 100 µM
2  Nc1ccn(C2C=C(CO)C(O)C2O)c(=O)c1 (stereo not drawn)  DMS 114 small cell lung       > 625 µM

Please find the next compound below.
**Q:** What value of TGI has been recorded for this entry: O=c1nc(NC2CCCCO2)ccn1CCO (stereo not drawn)
**A:** > 100 µM

###

Catalogue of compounds with associated TGI
# Tested on: P388/ADR leukemia
# method description: NCI tumour cell line growth inhibition, 48 h

> print(dat)
                                   compound  readout.value
1  CCN(CC)c1ccc2cc(C(=O)Nc3ccc4[nH]c(C(=O)N5C[C@@H](CCl)c6c5cc(OC(=O)Nc5ccccc5)c5[nH]cc(C)c65)cc4c3)oc2c1      > 1000 µM
2  N#C[C@H](OC1OC(COC2OC(CO)C(O)C(O)C2O)C(O)C(O)C1O)c1ccccc1 (stereo partly drawn)       > 158 µM

**Q:** What value of TGI has been recorded for this entry: CCCNC(=O)C(C)C1CCC2(C)C=CC(=O)C(C)=C2C1O (stereo not drawn)
**A:** > 100 µM

###

# Test system: 786-0 renal
# method description: NCI tumour cell line growth inhibition, 48 h
experimental endpoint: TGI

> print(dat)
                                   compound  readout.value
1  COc1c(F)c(F)c(/C(O)=C\c2nc3ccccc3[nH]c2=O)c(F)c1F        5.99 µM

**Q:** What value of TGI has been recorded for this entry: `CCCCCCCCCCCCCCCCCC1=NCCN1CCOC1=C(Cl)C(=O)c2ccccc2C1=O`
**A:** 4.09 µM

**Q:** What value of TGI has been recorded for this entry: `C=CC[C@@H](N)C(=O)N(C)[C@@H](C)[C@@H](O)c1ccccc1`
**A:** > 100 µM

**Q:** What value of TGI has been recorded for this entry: `COc1ccc(-c2cc(Cc3cccs3)c(=O)[nH]n2)cc1`
**A:** > 100 µM

**Q:** What value of TGI has been recorded for this entry: O=C1OCC2=C1C(c1ccccc1)c1cc3c(cc1N2)OCO3 (stereo not drawn)
**A:** > 69.3 µM

**Q:** What value of TGI has been recorded for this entry: O=C1CC(c2c[nH]c3ccccc23)C(=O)N1 (stereo not drawn)
**A:** > 100 µM

**Q:** What value of TGI has been recorded for this entry: `COc1ccccc1-c1cc(=O)c2cc(C)cnc2[nH]1`
**A:** > 100 µM
